src = patent US20240217961A1

METHOD SUMMARY: Hygroscopicity: storage at 92.5% RH for 1 week, weight loss by TGA
Assay type: physicochemical
EXPERIMENTAL PARAMETERS: weight loss by TGA at 145° C. after 92.5% RH for 1 week
QUANTITY NAME: 92.5% RH for 1W (by TGA,%) (% at)
Quick note: give the figure in % at, leave out the unit.

Exercise: // 92.5% RH for 1W (by TGA,%) lookup, key: N[C@@H](CCC(=O)O)C(=O)O [Glutamate]
Key: 2.4

Exercise: // 92.5% RH for 1W (by TGA,%) lookup, key: CN1CCCC(CN2c3ccccc3Sc3ccccc32)C1.O=P(O)(O)O (stereo not shown) [Phosphate]
Key: 1.3

From here, focus on the item given below.
Exercise: // 92.5% RH for 1W (by TGA,%) lookup, key: CN1CCCC(CN2c3ccccc3Sc3ccccc32)C1.O=C(O)CCCCC(=O)O (stereo not shown) [Adipate]
Key: 0.6

----------
TARGET ENTITY: CYP2D6 (Homo sapiens)
Sequence (P10635 whole entry): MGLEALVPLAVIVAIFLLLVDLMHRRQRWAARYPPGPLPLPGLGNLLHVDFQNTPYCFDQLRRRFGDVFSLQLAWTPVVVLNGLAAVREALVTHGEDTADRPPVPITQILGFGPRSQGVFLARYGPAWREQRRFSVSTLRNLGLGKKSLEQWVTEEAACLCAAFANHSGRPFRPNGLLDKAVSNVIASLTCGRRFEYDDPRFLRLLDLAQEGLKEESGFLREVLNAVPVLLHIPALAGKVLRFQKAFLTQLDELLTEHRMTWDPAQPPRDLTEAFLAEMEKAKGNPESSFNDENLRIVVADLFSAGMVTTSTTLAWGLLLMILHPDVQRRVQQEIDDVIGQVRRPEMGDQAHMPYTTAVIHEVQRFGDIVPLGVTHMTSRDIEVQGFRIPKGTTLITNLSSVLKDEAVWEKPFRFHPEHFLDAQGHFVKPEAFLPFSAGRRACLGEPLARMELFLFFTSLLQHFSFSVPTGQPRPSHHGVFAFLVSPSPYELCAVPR
METHOD SUMMARY: CYP phenotyping, recombinant CYP enzyme incubation
Format: in vitro ADME
EXPERIMENTAL PARAMETERS: human; recombinant CYP2D6, 1 µM, 50 pmol/ml of CYP protein; mean ± SD, n = 3
QUANTITY NAME: half-life at 1 µM (min)
Quick note: give the figure in min, leave out the unit.

Exercise: // half-life at 1 µM lookup, key: CN1CCC[C@H](CN2c3ccccc3Sc3ccccc32)C1 [(S)-mepazine]
Key: 9.94

----------
TARGET ENTITY: CYP2C9 (Homo sapiens)
Sequence (P11712 whole entry): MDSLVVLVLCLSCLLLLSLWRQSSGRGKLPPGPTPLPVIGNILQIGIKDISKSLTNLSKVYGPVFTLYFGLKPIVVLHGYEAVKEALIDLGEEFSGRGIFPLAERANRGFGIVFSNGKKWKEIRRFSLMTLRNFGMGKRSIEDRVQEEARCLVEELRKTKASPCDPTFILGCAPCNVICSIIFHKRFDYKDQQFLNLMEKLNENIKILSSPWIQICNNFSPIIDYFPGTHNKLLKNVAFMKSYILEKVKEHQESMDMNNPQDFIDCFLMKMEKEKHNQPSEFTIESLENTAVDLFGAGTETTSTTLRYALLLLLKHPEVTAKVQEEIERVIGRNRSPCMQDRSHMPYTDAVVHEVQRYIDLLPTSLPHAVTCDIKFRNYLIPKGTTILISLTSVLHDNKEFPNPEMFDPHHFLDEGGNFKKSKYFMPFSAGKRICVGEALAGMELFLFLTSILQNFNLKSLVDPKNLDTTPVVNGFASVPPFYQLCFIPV
METHOD SUMMARY: CYP phenotyping, recombinant CYP enzyme incubation
Type: in vitro ADME
EXPERIMENTAL PARAMETERS: human; recombinant CYP2C9, 1 µM; turnover observed for one or two replicates only, t1/2 reported as minimum
QUANTITY NAME: half-life at 1 µM (h)
Quick note: give the figure in h, leave out the unit.

Exercise: Tell me reported half-life at 1 µM for CN1CCC[C@H](CN2c3ccccc3Sc3ccccc32)C1 [(S)-mepazine] , tested with CYP2C9 (Homo sapiens).
Key: 2.12

----------
METHOD SUMMARY: Approximate solubility of free form in solvents at 25° C. (manual dilution, visual observation)
Assay type: physicochemical
EXPERIMENTAL PARAMETERS: toluene, organic solvent or mixture, thermodynamic from solid, read-out: Solubility (mg/mL) at 25° C.
QUANTITY NAME: solubility

Exercise: // solubility lookup, key: CN1CCC[C@H](CN2c3ccccc3Sc3ccccc32)C1 [(S)-mepazine]
Key: > 100 mg/mL

----------
METHOD SUMMARY: Approximate solubility of free form in solvents at 25° C. (manual dilution, visual observation)
Format: physicochemical
EXPERIMENTAL PARAMETERS: isopropyl acetate, organic solvent or mixture, thermodynamic from solid, read-out: Solubility (mg/mL) at 25° C.
QUANTITY NAME: solubility

Exercise: // solubility lookup, key: CN1CCC[C@H](CN2c3ccccc3Sc3ccccc32)C1 [(S)-mepazine]
Key: 50 to 100 mg/mL

----------
TARGET ENTITY: CYP2C19 (Homo sapiens, UniProt P33261)
Sequence (P33261 whole entry): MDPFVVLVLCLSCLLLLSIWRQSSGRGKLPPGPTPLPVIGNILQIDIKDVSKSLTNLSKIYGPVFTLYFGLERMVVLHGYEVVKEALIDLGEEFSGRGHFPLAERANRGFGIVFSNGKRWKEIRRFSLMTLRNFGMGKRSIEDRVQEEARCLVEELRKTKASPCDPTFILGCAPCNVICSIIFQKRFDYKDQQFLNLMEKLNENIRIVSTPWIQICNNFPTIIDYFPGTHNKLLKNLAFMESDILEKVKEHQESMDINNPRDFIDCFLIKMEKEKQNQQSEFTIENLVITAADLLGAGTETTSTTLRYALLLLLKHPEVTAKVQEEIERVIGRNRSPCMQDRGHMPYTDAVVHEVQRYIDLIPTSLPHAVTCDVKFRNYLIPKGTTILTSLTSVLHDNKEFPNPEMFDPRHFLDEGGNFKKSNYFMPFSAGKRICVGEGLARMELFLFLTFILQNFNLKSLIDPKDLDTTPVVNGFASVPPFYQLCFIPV
METHOD SUMMARY: CYP phenotyping, recombinant CYP enzyme incubation
Assay type: in vitro ADME
EXPERIMENTAL PARAMETERS: human; recombinant CYP2C19, 1 µM, 50 pmol/ml of CYP protein; mean ± SD, n = 3
QUANTITY NAME: half-life at 1 µM (min)
Quick note: give the figure in min, leave out the unit.

Exercise: // half-life at 1 µM lookup, key: CN1CCC[C@H](CN2c3ccccc3Sc3ccccc32)C1 [(S)-mepazine]
Key: 25.9
